For each record, write down the corresponding %Inh.
Tested on: CTK;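 note: KINOMEscan kinase panel screen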
Construct: gene MATK
Settings: concentration: 1 μM,replicates: in singlicate; n = 1
One number for each entry, in %.

Items follow; give %Inh for each.
1. Cc1ccc(Nc2ccnc(Nc3ccc4c(c3)CS(=O)(=O)C4)n2)cc1O.Cl [GW579362]
2. O=C(Nc1cccc(Oc2ccc3nccn3n2)c1)Nc1cccc(C(F)(F)F)c1
3. Cc1ccc(CC(=O)N2CCc3cc(-c4cn(C)c5ncnc(N)c45)ccc32)cc1 [GSK2634758]

[A]
25
49
0

Items follow; give %Inh for each.
1. Cl.Nc1n[nH]c2cc(-c3ccccn3)ccc12 [GSK2189892]
2. C[C@@H]1CNc2c(sc3ccc4nc(-c5ccc(O)cc5)ccc4c23)C(=O)N1
3. Cc1cccc(-c2nc(Nc3ccncc3)c3sccc3n2)n1 [GW869641]

[A]
[0, 43, 20]

Items follow; give %Inh for each.
1. CC(=O)Nc1nc2cnc(Nc3cc(NC(=O)c4cccc(CC(C)(C)C#N)c4)ccc3C)nc2s1
2. Cc1nnc(-c2ccc3occ(-c4ccc(S(C)=O)cc4)c3n2)o1 (stereo not shown)
3. O=C1NCCc2[nH]c(-c3ccncc3)cc21
4. C[C@@H](Oc1cc(-n2cnc3cc(-c4ccncc4)ccc32)sc1C(N)=O)c1ccccc1Cl [GSK479719]
5. CCOC(=O)N1CCC(n2cnc(-c3ccc(F)cc3)c2-c2ccnc(N)n2)CC1 [SB-219952]
6. NC(=O)Nc1sc(-c2ccc(F)cc2)cc1C(N)=O [GW789449]
7. O=c1[nH]cc(-c2ccc(O)cc2)c2sc(-c3ccncc3)cc12 [GSK1033723]
8. CCN1CCN(CCCC(=O)Nc2n[nH]c3nc(-c4ccc(O)cc4)c(Br)cc23)CC1 [SB-731579]

[A]
1. 0
2. 0
3. 24
4. 21
5. 0
6. 22
7. 0
8. 34

Items follow; give %Inh for each.
1. CN(c1ccccc1CNc1nc(Nc2ccc3c(c2)CC(=O)N3)ncc1C(F)(F)F)S(C)(=O)=O
2. Cc1ccn2nc(-c3ccc(F)cc3)c(-c3ccncc3)c2c1.Cl [GW457859]
3. C[C@@H](Oc1cc(-n2cnc3cc(-c4cnn(C)c4)ccc32)sc1C(N)=O)c1ccccc1Cl [GSK580432]
4. Cc1cccc2c(-c3ccncc3)c(-c3ccc(F)cc3)nn12.Cl [GW461487]
5. CCn1c(-c2nonc2N)nc2cncc(CNC3CCNCC3)c21.Cl [SB-747651]

[A]
1. 0
2. 0
3. 0
4. 0
5. 0
